Sourced from patent US20250250357A1

- system: T1, human MSLN-FL-his protein (human, UniProt Q13421 296-580)
- T1 construct: Made in HEK293E cells, purified on nickel column; it is put last here; also called human MSLN full-length protein; hMSLN-FL-his; not shown: His tag
- T1 sequence (Q13421 other isoform, or with tags, fused parts or gaps): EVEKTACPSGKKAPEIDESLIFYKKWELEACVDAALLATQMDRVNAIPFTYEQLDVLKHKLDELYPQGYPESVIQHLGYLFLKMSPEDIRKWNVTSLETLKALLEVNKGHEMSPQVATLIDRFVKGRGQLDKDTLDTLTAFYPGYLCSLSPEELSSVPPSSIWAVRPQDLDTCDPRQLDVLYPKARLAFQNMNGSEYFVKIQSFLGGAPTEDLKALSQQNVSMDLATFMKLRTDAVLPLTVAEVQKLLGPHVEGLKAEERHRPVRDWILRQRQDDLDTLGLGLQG
- measurement.notes: ELISA on coated antigen, antibody 0.0001 nM
assay.readout: OD450 (OD)
Numeric only. Scale: OD

INSERT INTO results (binder, value) VALUES
  ('S009-F8-24.14 (antibody, human IgG1, kappa, V domains shown, Human-murine chimeric antibody, human IgG1 heavy and kappa light constant regions) VH: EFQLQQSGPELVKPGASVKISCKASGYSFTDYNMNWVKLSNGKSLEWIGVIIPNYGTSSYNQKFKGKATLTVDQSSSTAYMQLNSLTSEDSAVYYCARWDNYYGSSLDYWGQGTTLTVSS VL: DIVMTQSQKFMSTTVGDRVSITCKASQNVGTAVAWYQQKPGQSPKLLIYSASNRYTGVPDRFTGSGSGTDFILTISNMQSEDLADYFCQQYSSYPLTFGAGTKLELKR', 0.1);

Now for a further binder.
Enquiry: Consider the binder S009-F8-7.5 (antibody, human IgG1, kappa, V domains shown, Human-murine chimeric antibody, human IgG1 heavy and kappa light constant regions) VH: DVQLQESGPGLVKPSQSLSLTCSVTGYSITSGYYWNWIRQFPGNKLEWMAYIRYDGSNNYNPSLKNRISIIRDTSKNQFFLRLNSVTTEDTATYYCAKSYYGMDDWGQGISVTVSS VL: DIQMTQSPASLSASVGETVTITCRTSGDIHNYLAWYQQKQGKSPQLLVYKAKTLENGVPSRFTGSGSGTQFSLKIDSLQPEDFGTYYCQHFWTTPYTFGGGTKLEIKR and give its recorded OD450.
Return: 0.06
